// reported Starting HPLC purity (%) per item
experiment: Chemical stability stress test (HPLC purity before and after); format: physicochemical; conditions: before the stress test
Where a name gives a salt, the structure may show the parent alone.
Number only, in %; omit the unit.

> print(dat)
                                   molecule  value
1  CC(C)OC(=O)OCOP(=O)(CO[C@H](C)Cn1cnc2c(N)ncnc21)OCOC(=O)OC(C)C [Tenofovir disoproxil succinate]  99.04
2  CC(C)OC(=O)OCOP(=O)(CO[C@H](C)Cn1cnc2c(N)ncnc21)OCOC(=O)OC(C)C [Tenofovir disoproxil dihydrogenphosphate]  99.66
3  CC(C)OC(=O)OCOP(=O)(CO[C@H](C)Cn1cnc2c(N)ncnc21)OCOC(=O)OC(C)C [Tenofovir disoproxil (free base)]  95.66
4  CC(C)OC(=O)OCOP(=O)(CO[C@H](C)Cn1cnc2c(N)ncnc21)OCOC(=O)OC(C)C [Tenofovir disoproxil L-tartrate]  98.10
5  CC(C)OC(=O)OCOP(=O)(CO[C@H](C)Cn1cnc2c(N)ncnc21)OCOC(=O)OC(C)C [Tenofovir disoproxil D-tartrate]  99.66

CC(C)OC(=O)OCOP(=O)(CO[C@H](C)Cn1cnc2c(N)ncnc21)OCOC(=O)OC(C)C [Tenofovir disoproxil fumarate] has a reported Starting HPLC purity (%) of 99.81
